The reported numbers originate from PubChem BioAssay AID256.

# Test system: CD2F1 mice, L1210 leukemia ip, survival T/C
# Protocol details: NCI In Vivo Anticancer Drug Screen. Data for tumor model L1210 Leukemia (intraperitoneal) in CD2F1 (CDF1) mice
# Condition label: endpoint: mean survival time; dose: 100.0 mg/kg/injection; schedule: Q01DX001 (ip); vehicle: saline
Inconclusive results and toxic doses are left out. How the source made its calls: active means survival T/C of 150% or more; inactive means T/C below 125% in these data.
Tick one outcome: active, inactive

## Input What classification did CCOC(=O)C(C#N)CC (stereo unspecified) end up with in this test?
## Output inactive

## Input What do we get for CCC12CN3CCc4c([nH]c5ccccc45)C(C(=O)OC)(c4cc5c(cc4OC)N(C)C4C(O)(C(=O)OC)C(OC(C)=O)C6(CC)C=CCN7CCC54C76)CC(C3)C1O2.CI.CO.[I][Hg][I] (stereo unspecified) ?
## Output inactive

## Input What do we get for CC(C)CC(CC(C)C)=NNc1ccc([N+](=O)[O-])cc1[N+](=O)[O-] ?
## Output inactive

## Input What do we get for CCOCC(C)(CO)CC(C)CO (stereo unspecified) ?
## Output inactive

## Input What do we get for [N-]=[N+]=CC(=O)CCC(N)C(=O)O (stereo unspecified) ?
## Output active

---
## Input What classification did O=[N+]([O-])c1ccc(/C(CBr)=N/N2CCCCCC2)cc1 end up with in this test?
## Output inactive

## Input What do we get for O=C(Nc1c(Oc2ccc(Cl)cc2)ccc(Cl)c1S(=O)(=O)O)Nc1c(Oc2ccc(Cl)c(Cl)c2)ccc(Cl)c1S(=O)(=O)O ?
## Output inactive

## Input What do we get for CC(=O)OCC1OC(n2cnc3[nH]c(=S)[nH]c(=S)c32)C(OC(C)=O)C1OC(C)=O (stereo unspecified) ?
## Output inactive

## Input What do we get for Cc1cccc[n+]1CC[n+]1ccccc1C ?
## Output inactive

## Input What do we get for COc1ccc(S(=O)(=O)NCCN(C)C)cc1NC(C)=O ?
## Output inactive

## Input What do we get for O=C(Nc1cc(Cl)cc(Cl)c1)C(F)(F)F ?
## Output inactive

## Input What do we get for C=CCC1(C)C(OC(C)=O)/C(=C\c2ccco2)CC2(C)c3cc(OC)ccc3CCC21 (stereo unspecified) ?
## Output inactive
